target: hFXR (Homo sapiens); assay: In Vitro FXR Assay (TK hFXR luciferase reporter in transfected CV-1 cells); details: CV-1 cells transfected with hFXR, hRXR, TK-ECRE-luc; 18 hrs incubation; luminescence
Sequence (Q96RI1 whole entry): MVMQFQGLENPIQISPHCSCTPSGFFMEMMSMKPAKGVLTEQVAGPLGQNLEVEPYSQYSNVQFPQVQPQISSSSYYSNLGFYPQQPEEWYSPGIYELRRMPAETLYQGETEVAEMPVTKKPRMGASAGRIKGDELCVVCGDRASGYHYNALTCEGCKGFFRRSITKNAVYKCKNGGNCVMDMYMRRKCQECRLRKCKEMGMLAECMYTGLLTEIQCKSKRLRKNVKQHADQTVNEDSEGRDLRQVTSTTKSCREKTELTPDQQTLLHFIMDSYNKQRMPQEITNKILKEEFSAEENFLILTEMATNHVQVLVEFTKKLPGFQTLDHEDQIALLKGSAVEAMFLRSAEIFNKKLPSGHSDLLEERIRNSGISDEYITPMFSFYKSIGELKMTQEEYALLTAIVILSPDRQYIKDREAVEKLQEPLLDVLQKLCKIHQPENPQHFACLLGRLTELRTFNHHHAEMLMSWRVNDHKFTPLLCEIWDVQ
Sequence (P19793 whole entry partner): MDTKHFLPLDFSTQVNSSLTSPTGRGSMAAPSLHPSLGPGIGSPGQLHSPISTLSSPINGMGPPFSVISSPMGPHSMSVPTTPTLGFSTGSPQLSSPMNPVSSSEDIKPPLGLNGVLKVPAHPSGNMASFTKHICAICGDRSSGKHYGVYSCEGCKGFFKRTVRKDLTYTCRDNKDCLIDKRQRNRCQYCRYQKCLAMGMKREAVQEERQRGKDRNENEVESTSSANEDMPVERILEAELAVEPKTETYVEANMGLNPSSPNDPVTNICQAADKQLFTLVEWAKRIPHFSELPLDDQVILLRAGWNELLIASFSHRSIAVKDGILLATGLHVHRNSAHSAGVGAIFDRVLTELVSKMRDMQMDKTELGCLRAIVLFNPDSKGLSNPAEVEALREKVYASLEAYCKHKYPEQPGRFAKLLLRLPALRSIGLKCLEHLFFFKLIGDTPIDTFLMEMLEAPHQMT
measured property: EC50

stdin: Give the value of EC50 reported for the following: COc1ccc([C@H]2CC[C@H](CN(c3cccc(-c4cnn(C5CC5)c4)c3)C(=O)[C@H]3CC[C@H](O)CC3)CC2)cc1C
stdout: ≤ 250 nM
